Test system: Rattus norvegicus
Experiment: Antiinflammatory activity against carrageenan-induced acute paw edema in albino rat assessed as reduction of edema at 20 mg/kg, po after 3 hrs relative to control
Assay type: functional
Binary classification by inhibition in vivo at 20 mg/kg, with 20% as an inclusive lower bound for fulfilled; all other cases are not fulfilled.

# example entries with known answers
COc1cc(OC)nc(Oc2ccc(F)cc2C(=O)c2ccc(C)cc2)n1 ... not fulfilled
COc1cc(OC)nc(Oc2ccc(Cl)cc2C(=O)c2ccc(Cl)cc2)n1 ... not fulfilled
COc1cc(OC)nc(Oc2ccc(C)cc2C(=O)c2ccc(Cl)cc2)n1 ... not fulfilled

Kindly determine if inhibition in vivo at 20 mg/kg recorded for COc1cc(OC)nc(Oc2ccc(Br)cc2C(=O)c2ccc(Cl)cc2)n1 is above or exactly 20%.
not fulfilled

Kindly determine if inhibition in vivo at 20 mg/kg recorded for COc1cc(OC)nc(Oc2ccc(F)cc2C(=O)c2ccc(Cl)cc2)n1 is above or exactly 20%.
fulfilled

Kindly determine if inhibition in vivo at 20 mg/kg recorded for CC(=O)Oc1ccccc1C(=O)O is above or exactly 20%.
fulfilled

Kindly determine if inhibition in vivo at 20 mg/kg recorded for CCCCC1C(=O)N(c2ccccc2)N(c2ccccc2)C1=O is above or exactly 20%.
fulfilled

###

Test system: Rattus norvegicus
Test: Toxicity in albino rat assessed as ulcerogenic activity at 400 mg/kg, po after 5 hrs
Type: organism-based
Parameters: dose 400 mg/kg, route oral
Details: in vivo
For each record, check the reported Activity: if it is below 40% write fulfilled, else write not fulfilled.

# example entries with known answers
CC(=O)Oc1ccccc1C(=O)O [ASPIRIN] ... not fulfilled
COc1cc(OC)nc(Oc2ccc(Br)cc2C(=O)c2ccc(Cl)cc2)n1 ... fulfilled
CCCCC1C(=O)N(c2ccccc2)N(c2ccccc2)C1=O [PHENYLBUTAZONE] ... not fulfilled
COc1cc(OC)nc(Oc2ccc(C)cc2C(=O)c2ccc(Cl)cc2)n1 ... not fulfilled

Alright, here's another molecule for you.
Determine if COc1cc(OC)nc(Oc2ccc(F)cc2C(=O)c2ccc(Cl)cc2)n1 shows Activity strictly lower than 40%.
fulfilled

###

Test system: Rattus norvegicus
Test: Toxicity in albino rat with hyperemia assessed as ulcerogenic activity at 400 mg/kg, po after 5 hrs
Assay type: organism-based
Design: dose 400 mg/kg, route oral
Conditions: in vivo
VALUE_TYPE: Activity (%)
Please respond with the number in % and leave the unit unwritten.

Some compounds with recorded Activity:
CCCCC1C(=O)N(c2ccccc2)N(c2ccccc2)C1=O [PHENYLBUTAZONE] ... 90
COc1cc(OC)nc(Oc2ccc(C)cc2C(=O)c2ccc(C)cc2)n1 ... 100
COc1cc(OC)nc(Oc2ccc(Br)cc2C(=O)c2ccc(Cl)cc2)n1 ... 90
COc1cc(OC)nc(Oc2ccc(C)cc2C(=O)c2ccc(Cl)cc2)n1 ... 60
COc1cc(OC)nc(Oc2ccc(F)cc2C(=O)c2ccc(C)cc2)n1 ... 100

// fetch Activity; item: COc1cc(OC)nc(Oc2ccc(F)cc2C(=O)c2ccc(Cl)cc2)n1 ; system: Rattus norvegicus
90

// fetch Activity; item: COc1cc(OC)nc(Oc2ccc(Cl)cc2C(=O)c2ccc(Cl)cc2)n1 ; system: Rattus norvegicus
100

// fetch Activity; item: CC(=O)Oc1ccccc1C(=O)O [ASPIRIN] ; system: Rattus norvegicus
90
